From: patent US20240336608A1

Target: recombinant IL4I1 (Homo sapiens, UniProt Q96RQ9)
Sequence (Q96RQ9 22-567): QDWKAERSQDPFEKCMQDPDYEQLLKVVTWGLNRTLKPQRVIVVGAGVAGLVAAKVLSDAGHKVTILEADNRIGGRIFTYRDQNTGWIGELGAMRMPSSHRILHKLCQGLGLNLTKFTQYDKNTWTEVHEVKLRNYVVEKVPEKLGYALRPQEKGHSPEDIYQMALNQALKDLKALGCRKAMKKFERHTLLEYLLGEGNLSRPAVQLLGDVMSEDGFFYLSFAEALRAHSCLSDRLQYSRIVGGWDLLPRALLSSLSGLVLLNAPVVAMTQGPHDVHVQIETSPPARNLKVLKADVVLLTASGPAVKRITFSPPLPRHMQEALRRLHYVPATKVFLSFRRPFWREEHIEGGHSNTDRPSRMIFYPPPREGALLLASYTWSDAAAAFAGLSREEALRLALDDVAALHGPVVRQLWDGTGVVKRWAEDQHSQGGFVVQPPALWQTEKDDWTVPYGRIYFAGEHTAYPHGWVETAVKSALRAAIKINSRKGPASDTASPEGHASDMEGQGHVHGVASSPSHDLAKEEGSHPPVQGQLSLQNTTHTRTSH
Experiment: IL4I1 Enzymatic Assay (Amplex Red/HRP coupled detection of H2O2, fluorescence)
Settings: 1 nM recombinant IL4I1; four-hour pre-incubation with compound; 1 mM each Phe, Tyr, Trp; ten-point titration
Would you mind classing the entries by EC50? Ranges: label 0 = under 0.02 µM, label 1 = from 0.02 µM up to 0.08 µM, label 2 = 0.08 µM and over

Request: Sort Cc1nc(C(N)=O)ccc1-n1cc(C(=O)NCc2nnc(-c3ccccc3)s2)nn1 into one of the categories.
Response: label 0

More entries:
Request: Sort N#CCn1cc(C(=O)NCc2nnc(-c3ccccc3)s2)nn1 into one of the categories.
Response: label 0

Request: Sort N#CC1(n2cc(C(=O)NCc3nnc(-c4ccccc4)s3)nn2)CCOC1 (centres unmarked) into one of the categories.
Response: label 1

Request: Sort Cc1ccc(-n2cc(C(=O)NCc3nnc(-c4ccc(F)cc4)s3)nn2)c(C)n1 into one of the categories.
Response: label 1

Request: Sort Cn1c(C(=O)NCc2nnc(-c3ccccc3)s2)cc2ccccc21 into one of the categories.
Response: label 2

Request: Sort C[C@H](C1COC1)n1cc(C(=O)NCc2nnc(-c3ccccc3)s2)nn1 into one of the categories.
Response: label 2
